Target System: human collagen type I (acid soluble, extracted from placenta, Sigma C7774) (human) (UniProt P02452)
Sequence (P02452 162-1218 limits assumed, chain 1 of 2): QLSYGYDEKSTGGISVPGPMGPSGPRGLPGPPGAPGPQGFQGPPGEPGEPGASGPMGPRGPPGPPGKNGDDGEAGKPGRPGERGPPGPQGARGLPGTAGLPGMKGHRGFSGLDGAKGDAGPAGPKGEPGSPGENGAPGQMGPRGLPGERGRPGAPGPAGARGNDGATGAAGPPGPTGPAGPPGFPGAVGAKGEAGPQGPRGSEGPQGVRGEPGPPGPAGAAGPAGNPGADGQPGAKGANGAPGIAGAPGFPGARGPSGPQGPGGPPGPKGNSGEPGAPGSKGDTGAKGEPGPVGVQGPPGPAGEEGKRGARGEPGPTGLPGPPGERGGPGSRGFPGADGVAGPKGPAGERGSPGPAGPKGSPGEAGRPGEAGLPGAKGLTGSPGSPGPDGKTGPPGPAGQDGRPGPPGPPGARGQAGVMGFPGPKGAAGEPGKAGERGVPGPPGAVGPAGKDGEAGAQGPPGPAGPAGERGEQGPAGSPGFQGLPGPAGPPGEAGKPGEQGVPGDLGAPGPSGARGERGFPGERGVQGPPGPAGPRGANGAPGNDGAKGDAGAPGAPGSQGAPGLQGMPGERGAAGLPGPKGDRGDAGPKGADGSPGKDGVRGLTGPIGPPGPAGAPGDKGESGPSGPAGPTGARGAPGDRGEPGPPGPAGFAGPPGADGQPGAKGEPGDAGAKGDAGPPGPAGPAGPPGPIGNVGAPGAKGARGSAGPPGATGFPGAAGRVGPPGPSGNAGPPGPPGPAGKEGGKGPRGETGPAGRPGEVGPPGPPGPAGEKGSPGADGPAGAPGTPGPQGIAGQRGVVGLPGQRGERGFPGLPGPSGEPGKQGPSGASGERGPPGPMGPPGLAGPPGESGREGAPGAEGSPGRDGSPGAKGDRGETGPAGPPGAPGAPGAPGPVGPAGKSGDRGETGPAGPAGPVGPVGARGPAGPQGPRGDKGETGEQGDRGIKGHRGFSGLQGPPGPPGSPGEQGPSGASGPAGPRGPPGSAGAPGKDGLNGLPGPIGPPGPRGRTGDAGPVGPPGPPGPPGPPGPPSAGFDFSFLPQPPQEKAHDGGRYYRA
Sequence (P08123 80-1119 limits assumed, chain 2 of 2, further chain): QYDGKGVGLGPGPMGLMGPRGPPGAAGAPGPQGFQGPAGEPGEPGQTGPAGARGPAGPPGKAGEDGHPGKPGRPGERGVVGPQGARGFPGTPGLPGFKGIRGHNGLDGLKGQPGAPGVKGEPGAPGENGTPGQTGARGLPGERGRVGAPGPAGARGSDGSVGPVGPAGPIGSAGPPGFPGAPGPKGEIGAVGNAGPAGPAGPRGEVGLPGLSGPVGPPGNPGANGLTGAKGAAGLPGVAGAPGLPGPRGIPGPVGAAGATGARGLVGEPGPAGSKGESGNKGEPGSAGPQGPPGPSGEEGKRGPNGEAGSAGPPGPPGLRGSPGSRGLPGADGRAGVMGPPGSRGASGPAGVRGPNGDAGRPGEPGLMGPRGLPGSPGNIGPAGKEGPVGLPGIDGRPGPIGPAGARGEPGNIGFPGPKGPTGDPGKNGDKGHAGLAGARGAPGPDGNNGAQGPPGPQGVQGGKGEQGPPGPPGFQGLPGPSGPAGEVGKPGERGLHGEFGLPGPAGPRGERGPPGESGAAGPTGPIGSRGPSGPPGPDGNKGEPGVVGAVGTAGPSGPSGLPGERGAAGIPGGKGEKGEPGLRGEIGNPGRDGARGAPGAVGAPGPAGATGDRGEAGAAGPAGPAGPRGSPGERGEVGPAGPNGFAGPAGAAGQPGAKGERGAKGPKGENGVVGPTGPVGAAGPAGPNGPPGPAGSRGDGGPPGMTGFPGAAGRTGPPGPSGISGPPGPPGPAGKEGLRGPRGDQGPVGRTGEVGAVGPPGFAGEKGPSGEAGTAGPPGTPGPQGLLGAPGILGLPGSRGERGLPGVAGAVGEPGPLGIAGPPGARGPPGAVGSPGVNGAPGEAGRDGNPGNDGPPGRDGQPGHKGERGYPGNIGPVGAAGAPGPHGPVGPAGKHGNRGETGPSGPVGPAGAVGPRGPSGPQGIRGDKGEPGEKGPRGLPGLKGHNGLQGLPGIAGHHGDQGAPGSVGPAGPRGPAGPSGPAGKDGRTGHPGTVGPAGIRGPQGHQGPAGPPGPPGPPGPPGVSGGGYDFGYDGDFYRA
Assay Text: dried collagen assay, 5 uM each
Human binding values by entry
Measured Parameter: Human binding (%)

> print(dat)
                                 binder  measured.parameter  quantitative.result
1   GQWHCTTLFPHNYCLYG [Compound ID 924]       Human binding                   24
2   KKWHCYTYFPHHYCLYG [Compound ID 802]       Human binding                   57
3   GSWHCTTLFPHHYCLYG [Compound ID 911]       Human binding                   15
4    DWTCSGDEYRWHCNYE [Compound ID 845]       Human binding                   36
5  GKWHCYTYFPHHYCVYYK [Compound ID 975]       Human binding                   70
6   GQWHCTTRFPSHYCLYG [Compound ID 880]       Human binding                   30
7   GQWHCTTAFPHHYCLYG [Compound ID 853]       Human binding                   66
